- Test system: MV-4-11 cells
- PROCEDURE DETAILS: MTT cell proliferation assay
- Type: cell-based
- ASSAY CONDITIONS: Homo sapiens, MV4-11, 72-hour MTT
READOUT: IC50

Request: Would you mind telling me what IC50 value was observed for Nc1ccc(/C=C/C(=O)NCc2cc3cc(-c4ccc(C(=O)N5CCC(F)(F)CC5)cn4)cc(C(F)(F)F)c3o2)cn1 ?
Response: 90 nM

---

- System: LN18 cells
- PROCEDURE DETAILS: MTT cell proliferation assay
- Assay type: cell-based
- ASSAY CONDITIONS: Homo sapiens, LN-18, 72-hour MTT
- Method: The MTT cell proliferation assay was used to study the cytotoxic properties of the compounds. The assay was performed according to the method described by Roche Molecular Biochemicals, with minor modifications. […] After solubilization, the formazan dye was quantitated using a scanning multi-well spectrophotometer (ELISA reader). […] All optical densities were measured at 490 nm using a Vmax Kinetic Microplate Reader (Molecular Devices). […]
READOUT: pIC50
Keep in mind that pIC50 stands for -log10 of concentration in molar terms.

Request: Would you mind telling me what pIC50 value was observed for Nc1ccc(/C=C/C(=O)NCc2cc3cc(-c4ccc(C(=O)N5CCC(F)(F)CC5)cn4)cc(C(F)(F)F)c3o2)cn1 [Compound 585] ?
Response: 5.78

---

- System: Z138 cells
- PROCEDURE DETAILS: MTT cell proliferation assay
- Assay type: cell-based
- ASSAY CONDITIONS: Homo sapiens, Z-138, Z138 cells; approximately 64-72 hours incubation; read-out: MTT Assay IC50 Z-138
pIC50: −log10 of the molar value.
READOUT: pIC50

SMILES NOTATION: Nc1ccc(/C=C/C(=O)NCc2cc3cc(-c4ccc(C(=O)N5CCC(O)(C(F)(F)F)CC5)cn4)cc(C(F)(F)F)c3o2)cn1
pIC50: > 7.00
--
SMILES NOTATION: Nc1ccc(/C=C/C(=O)NCc2cc3cc(-c4ccc(C(=O)N5CC[C@@H](F)C5)cc4)cc(C(F)(F)F)c3o2)cn1
pIC50: 5.30 to 7.00
--
SMILES NOTATION: Nc1ccc(/C=C/C(=O)NCc2cc3cc(-c4ccc(C(=O)N5CCCCC5)cc4)cc(Cl)c3o2)cn1
pIC50: 5.30 to 7.00

Request: Would you mind telling me what pIC50 value was observed for CN1Cc2cc(-c3cc(Cl)c4oc(CNC(=O)/C=C/c5ccc(N)nc5)cc4c3)ccc2C1=O ?
Response: 5.30 to 7.00

Request: Would you mind telling me what pIC50 value was observed for CN1CCN(C(=O)c2ccc(-c3cc(Cl)c4oc(CNC(=O)/C=C/c5ccc(N)nc5)cc4c3)nc2)CC1 ?
Response: > 7.00

Request: Would you mind telling me what pIC50 value was observed for Nc1ccc(/C=C/C(=O)NCc2cc3cc(-c4ccc(C(=O)C(=O)N5CCOCC5)cc4)cc(Cl)c3o2)cn1 ?
Response: 5.30 to 7.00

Request: Would you mind telling me what pIC50 value was observed for Nc1ccc(/C=C/C(=O)NCc2cc3cc(-c4cccc(C(=O)N5CCOCC5)c4)cc(Cl)c3o2)cn1 ?
Response: > 7.00

---

- Tested on: HPAC cells
- PROCEDURE DETAILS: MTT cell proliferation assay
- Type: cell-based
- ASSAY CONDITIONS: Homo sapiens, 72-hour MTT
READOUT: pIC50
Keep in mind that pIC50 stands for -log10 of concentration in molar terms.

Request: Would you mind telling me what pIC50 value was observed for Nc1ccc(/C=C/C(=O)NCc2cc3cc(-c4ccc(C(=O)N5CCC(F)(F)CC5)cn4)cc(C(F)(F)F)c3o2)cn1 ?
Response: 6.42

---

- System: NHDF cells
- PROCEDURE DETAILS: MTT cell proliferation assay
- Format: cell-based
- ASSAY CONDITIONS: Homo sapiens; NHDF cell line; read-out: MTT Assay IC50, NHDF
READOUT: IC50

SMILES NOTATION: Nc1ccc(/C=C/C(=O)NCc2cc3cc(-c4ccc(C(=O)N5CCOCC5)cc4)cc(C(F)(F)F)c3o2)cn1
IC50: < 100 nM

Now take the following compound into account.
Request: Would you mind telling me what IC50 value was observed for Nc1ccc(/C=C/C(=O)NCc2cc3cc(-c4ccc(S(=O)(=O)N5CCOCC5)cc4)cc(Cl)c3o2)cn1 ?
Response: < 100 nM

---

- Tested on: Pfieffer cells
- PROCEDURE DETAILS: MTT cell proliferation assay
- Format: cell-based
- ASSAY CONDITIONS: 72-hour MTT
READOUT: IC50 (nM)
// note: answer is a bare numeric in nM

Request: Would you mind telling me what IC50 value was observed for Nc1ccc(/C=C/C(=O)NCc2cc3cc(-c4ccc(C(=O)N5CCC(F)(F)CC5)cn4)cc(C(F)(F)F)c3o2)cn1 [Compound 585] ?
Response: 80

---

Each entry below carries its recorded pIC50.
- Test system: Z138 cells
- PROCEDURE DETAILS: MTT cell proliferation assay
- Format: cell-based
- ASSAY CONDITIONS: Homo sapiens, Z-138, Z138 cells; approximately 64-72 hours incubation; read-out: MTT Assay IC50 Z-138
pIC50: −log10 of the molar value.

These recorded examples may help you get a feel for the data.
MOLECULE: Nc1ccc(/C=C/C(=O)NCc2cc3cc(-c4ccc(C(=O)N5CCOCC5)nn4)cc(Cl)c3o2)cn1 [Compound 552]
pIC50: 5.30 to 7.00

MOLECULE: Nc1ccc(/C=C/C(=O)NCc2cc3cc(-c4ccc(F)c(C(=O)N5CCOCC5)c4)cc(Cl)c3o2)cn1 [Compound 562]
pIC50: > 7.00

MOLECULE: CC1(C)CN(C(=O)c2ccc(-c3cc(C(F)(F)F)c4oc(CNC(=O)/C=C/c5ccc(N)nc5)cc4c3)cc2)CCN1 [Compound 572]
pIC50: > 7.00

Request: Would you mind telling me what pIC50 value was observed for Nc1ccc(/C=C/C(=O)NCc2cc3cc(-c4ccc(C(=O)N5CCOCC5)cn4)cc(Cl)c3o2)cn1 [Compound 560] ?
Response: 5.30 to 7.00

---

- Tested on: SW-1116 cells
- PROCEDURE DETAILS: MTT cell proliferation assay
- Assay type: cell-based
- ASSAY CONDITIONS: Homo sapiens, 72-hour MTT
READOUT: IC50
The reply should consist of the numeric value with the unit placed after it.

Request: Would you mind telling me what IC50 value was observed for Nc1ccc(/C=C/C(=O)NCc2cc3cc(-c4ccc(C(=O)N5CCC(F)(F)CC5)cn4)cc(C(F)(F)F)c3o2)cn1 ?
Response: 970 nM

---

- Tested on: RPMI8226 cells
- PROCEDURE DETAILS: MTT cell proliferation assay
- Assay type: cell-based
- ASSAY CONDITIONS: Homo sapiens, RPMI-8226; RPMI8226 cells; 72-hour MTT; read-out: RPMI8226 MTT IC50
READOUT: IC50
The reply should consist of the numeric value with the unit placed after it.

SMILES NOTATION: Nc1ccc(/C=C/C(=O)NCc2cc3cc(-c4ccc(C(=O)N5CCC(F)(F)CC5)cn4)cc(C(F)(F)F)c3o2)cn1
READOUT: IC50
OBSERVED MEASUREMENT: 0.15 µM

Now take the following molecule into account.
Request: Would you mind telling me what IC50 value was observed for Nc1ccc(/C=C/C(=O)NCc2cc3cc(-c4ccc(C(=O)N5CC[C@H](F)C5)cc4)cc(C(F)(F)F)c3o2)cn1 ?
Response: 0.43 µM

---

- System: MS751 cells
- PROCEDURE DETAILS: MTT cell proliferation assay
- Format: cell-based
- ASSAY CONDITIONS: Homo sapiens; MS751 cells; approximately 64-72 hours incubation; read-out: MTT Assay IC50 MS-751
READOUT: IC50

Request: Report IC50 for Nc1ccc(/C=C/C(=O)NCc2cc3cc(-c4ccc(C(=O)NNc5ccccn5)cc4)cc(C(F)(F)F)c3o2)cn1 tested on MS751 cells.
Response: 100 to 5000 nM

---

- Test system: U118MG cells
- PROCEDURE DETAILS: MTT cell proliferation assay
- Type: cell-based
- ASSAY CONDITIONS: Homo sapiens, U-118-MG, 72-hour MTT
- Protocol: The MTT cell proliferation assay was used to study the cytotoxic properties of the compounds. The assay was performed according to the method described by Roche Molecular Biochemicals, with minor modifications. […] After solubilization, the formazan dye was quantitated using a scanning multi-well spectrophotometer (ELISA reader). […] All optical densities were measured at 490 nm using a Vmax Kinetic Microplate Reader (Molecular Devices). […]
READOUT: IC50 (nM)
// note: answer is a bare numeric in nM

Request: Would you mind telling me what IC50 value was observed for Nc1ccc(/C=C/C(=O)NCc2cc3cc(-c4ccc(C(=O)N5CCC(F)(F)CC5)cn4)cc(C(F)(F)F)c3o2)cn1 ?
Response: 50
